Examples of compounds with documented -logMIC follow.
Test system: Candida albicans
Experiment: Antifungal activity against Candida albicans MTCC 183 after 72 hrs by serial dilution method
Type: functional
reported.endpoint: -logMIC

                                    compound  reported_endpoint  result_value
 0  Cc1ccc(C2Sc3cc(Cl)ccc3N=C3c4ccccc4C(c4ccccc4)C32)cc1 (stereo not given)            -logMIC          1.56
 1  Clc1ccc2c(c1)SC(c1ccccc1)C1C(=N2)c2ccccc2C1c1ccccc1 (stereo not given)            -logMIC          1.55
 2  c1ccc(C2Sc3ccccc3N=C3c4ccccc4C(c4ccccc4)C32)cc1 (stereo not given)            -logMIC          1.21
 3  Cc1ccc2c(c1)SC(c1ccccc1)C1C(=N2)c2ccccc2C1c1ccccc1 (stereo not given)            -logMIC          1.22
 4  Clc1ccc(C2Sc3cc(Cl)ccc3N=C3c4ccccc4C(c4ccccc4)C32)cc1 (stereo not given)            -logMIC          1.88
 5  COc1ccc(C2Sc3cc(OC)ccc3N=C3c4ccccc4C(c4ccccc4)C32)cc1 (stereo not given)            -logMIC          1.87
 6  Cc1ccc2c(c1)SC(c1ccc(Cl)cc1)C1C(=N2)c2ccccc2C1c1ccccc1 (stereo not given)            -logMIC          1.26
 7  Clc1ccc(C2Sc3ccccc3N=C3c4ccccc4C(c4ccccc4)C32)cc1 (stereo not given)            -logMIC          0.94
 8  COc1ccc(C2Sc3ccccc3N=C3c4ccccc4C(c4ccccc4)C32)cc1 (stereo not given)            -logMIC          0.94
 9  COc1ccc(C2Sc3cc(Cl)ccc3N=C3c4ccccc4C(c4ccccc4)C32)cc1 (stereo not given)            -logMIC          1.88
10  COc1ccc2c(c1)SC(c1ccccc1)C1C(=N2)c2ccccc2C1c1ccccc1 (stereo not given)            -logMIC          0.94
11  Cc1ccc(C2Sc3cc(C)ccc3N=C3c4ccccc4C(c4ccccc4)C32)cc1 (stereo not given)            -logMIC          0.94
12  COc1ccc2c(c1)SC(c1ccc(C)cc1)C1C(=N2)c2ccccc2C1c1ccccc1 (stereo not given)            -logMIC          1.55
13  COc1ccc2c(c1)SC(c1ccc(Cl)cc1)C1C(=N2)c2ccccc2C1c1ccccc1 (stereo not given)            -logMIC          2.16
14  COc1ccc(C2Sc3cc(C)ccc3N=C3c4ccccc4C(c4ccccc4)C32)cc1 (stereo not given)            -logMIC          0.95

* * *

Recorded measurements of -logMIC, one per entry
System: Staphylococcus aureus
Experiment: Antibacterial activity against Staphylococcus aureus MTCC 7443 after 24 hrs by serial dilution method
Format: functional
reported.endpoint: -logMIC

>>> print(df.to_string())
                                   compound  result_value
0  Cc1ccc2c(c1)SC(c1ccccc1)C1C(=N2)c2ccccc2C1c1ccccc1 (stereo not given)          0.92
1  c1ccc(C2Sc3ccccc3N=C3c4ccccc4C(c4ccccc4)C32)cc1 (stereo not given)          1.21
2  COc1ccc2c(c1)SC(c1ccc(Cl)cc1)C1C(=N2)c2ccccc2C1c1ccccc1 (stereo not given)          1.27
3  COc1ccc2c(c1)SC(c1ccccc1)C1C(=N2)c2ccccc2C1c1ccccc1 (stereo not given)          1.84
4  Cc1ccc(C2Sc3cc(C)ccc3N=C3c4ccccc4C(c4ccccc4)C32)cc1 (stereo not given)          1.54
5  COc1ccc2c(c1)SC(c1ccc(C)cc1)C1C(=N2)c2ccccc2C1c1ccccc1 (stereo not given)          1.86
6  Clc1ccc(C2Sc3ccccc3N=C3c4ccccc4C(c4ccccc4)C32)cc1 (stereo not given)          1.55
7  COc1ccc(C2Sc3cc(Cl)ccc3N=C3c4ccccc4C(c4ccccc4)C32)cc1 (stereo not given)          1.88
8  Cc1ccc(C2Sc3cc(Cl)ccc3N=C3c4ccccc4C(c4ccccc4)C32)cc1 (stereo not given)          2.16
9  COc1ccc(C2Sc3cc(C)ccc3N=C3c4ccccc4C(c4ccccc4)C32)cc1 (stereo not given)          1.55
